Items are presented alongside their recorded TGI.
tested on: IGROV1 ovarian; assay: NCI tumour cell line growth inhibition, 48 h
ATTRIBUTE MEASURED: TGI

# COMPOUND, TESTED TARGET, ATTRIBUTE MEASURED, OBSERVED
records = [
    ("CS(=O)(=O)N(CCC#N)c1ccc(C=O)cc1", "IGROV1 ovarian", "TGI", "> 100 µM"),
    ("CN(CC(=O)O)Cc1oc(CO)cc(=O)c1O", "IGROV1 ovarian", "TGI", "> 100 µM"),
    ("Cc1ccc(C=NC23CC4CC(CC(C4)C2)C3)cc1", "IGROV1 ovarian", "TGI", "> 100 µM"),
    ("C=C1CCCC2[C@](C)(CC3=C(O)C(=O)C=C(OC)C3=O)[C@@H](C)CC[C@]12C (some centres undefined)", "IGROV1 ovarian", "TGI", "16 µM"),
    ("CN(C)CCNC(=O)c1ccc(Cl)c2cc3ccccc3nc12", "IGROV1 ovarian", "TGI", "11.3 µM"),
    ("COc1cc(/C=C\\c2ccc(Br)cc2)cc(OC)c1OC", "IGROV1 ovarian", "TGI", "> 100 µM"),
    ("C=C1C(OC/C=C/COC2O[C@@H]3O[C@@]4(C)CC[C@H]5[C@H](C)CC[C@@H](C2=C)[C@@]35OO4)O[C@@H]2O[C@@]3(C)CC[C@H]4[C@H](C)CC[C@@H]1[C@@]24OO3 (some centres undefined)", "IGROV1 ovarian", "TGI", "> 36.6 µM"),
    ("COc1cc(F)c(/C=C/c2cc(/C=C/c3cc(OC)c(OC)cc3F)n(-c3cc(F)cc(F)c3)n2)cc1OC", "IGROV1 ovarian", "TGI", "21.1 µM"),
    ("CC(C)C(=O)[O-].CC(C)C(=O)[O-].N.N.N.N.[Co+3].[O-][Cl+3]([O-])([O-])[O-]", "IGROV1 ovarian", "TGI", "> 100 µM"),
]
